assay-name: Elimination half life in Sprague-Dawley rat at 5 mg/kg, iv
Type: ADME, organism-based
experimental-conditions: in vivo, read-out: beta t1/2 (converted)
recorded-endpoint: half-life (h)
Provide the reading as a plain figure in h.

Note half-life for the compound shown: "Nc1ccccc1NC(=O)c1ccc(CNC(=O)/C=C/c2cnc3cccnn23)cc1"
1.87

* * *

Tested on: HCT-116
assay-name: Cytotoxicity against human HCT116 cells assessed as inhibition of cell proliferation after 72 hrs by MTT assay
Format: functional, cell-based
experimental-conditions: HCT-116, 72 h
# 1 = IC50 below 2000 nM (exclusive); -1 = IC50 at/above 2000 nM

The examples below pair each entry with its known result.
Nc1ccccc1NC(=O)c1ccc(CNC(=O)/C=C/c2cnc3ccccn23)cc1    -1
Nc1ccccc1NC(=O)c1ccc(CCNC(=O)/C=C/c2cnc3ccccn23)cc1    -1
Nc1ccccc1NC(=O)c1ccc(CNC(=O)OCc2cccnc2)cc1    -1
Nc1ccc(F)cc1NC(=O)c1ccc(CNC(=O)/C=C/c2cnc3cccnn23)cc1    -1
Nc1ccccc1NC(=O)c1ccc(CNC(=O)/C=C/c2cnc3cccnn23)cc1    1

Strictly below 2000 nM: is that where IC50 of "Nc1ccccc1NC(=O)c1ccc(CNC(=O)/C=C/c2c[nH]c3ccccc23)cc1" sits?
1

* * *

assay-name: AUClast in Sprague-Dawley rat at 25 mg/kg, po
Type: ADME, organism-based
Set-up: dose 25 mg/kg, route oral, time 0 - last
experimental-conditions: in vivo
recorded-endpoint: AUC(0-t) (ng·h/mL)
Your answer should be a plain number; it is taken to be in ng·h/mL.

// Input: "Nc1ccccc1NC(=O)c1ccc(CNC(=O)/C=C/c2cnc3cccnn23)cc1" . Output its AUC(0-t) only.
6780

* * *

assay-name: Oral bioavailability in Sprague-Dawley rat at 25 mg/kg
Type: ADME, organism-based
experimental-conditions: in vivo
recorded-endpoint: bioavailability (%)
// note: answer is a bare numeric in %

Quick one: give measured bioavailability for "Nc1ccccc1NC(=O)c1ccc(CNC(=O)/C=C/c2cnc3cccnn23)cc1"
76

* * *

study-target: Histone deacetylase 1 (Homo sapiens)
Sequence (Q13547 whole entry): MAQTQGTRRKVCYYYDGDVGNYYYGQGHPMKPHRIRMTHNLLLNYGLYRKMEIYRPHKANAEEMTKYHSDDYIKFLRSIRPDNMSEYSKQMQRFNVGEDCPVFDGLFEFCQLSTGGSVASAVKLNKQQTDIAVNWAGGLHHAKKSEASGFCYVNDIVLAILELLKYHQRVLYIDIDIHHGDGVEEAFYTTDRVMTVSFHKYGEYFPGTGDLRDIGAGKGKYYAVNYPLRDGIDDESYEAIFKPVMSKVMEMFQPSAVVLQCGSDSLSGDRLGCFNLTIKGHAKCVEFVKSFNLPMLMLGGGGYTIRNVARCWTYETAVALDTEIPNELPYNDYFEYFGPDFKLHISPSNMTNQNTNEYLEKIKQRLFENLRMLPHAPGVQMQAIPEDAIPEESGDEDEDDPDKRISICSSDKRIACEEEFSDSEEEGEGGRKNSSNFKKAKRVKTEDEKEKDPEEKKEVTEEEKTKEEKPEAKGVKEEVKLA
recorded-endpoint: pIC50
Please express pIC50 as -log10 of the molar concentration.

Cc1nc2ccccn2c1/C=C/C(=O)NCCc1ccc(C(=O)Nc2ccccc2N)cc1    6.75
Nc1ccc(F)cc1NC(=O)c1ccc(CNC(=O)/C=C/c2cnc3cccnn23)cc1    6.86
Nc1cc(F)ccc1NC(=O)c1ccc(CNC(=O)/C=C/c2cnc3cccnn23)cc1    6.88
Nc1ccccc1NC(=O)c1ccc(CNC(=O)/C=C/c2cnc3ccccn23)cc1    6.89

Now for another entry.
Quote pIC50 reported for "Cc1nc2ccccn2c1/C=C/C(=O)NCc1ccc(C(=O)Nc2ccccc2N)cc1" please.
6.76

* * *

assay-name: Elimination half life in Sprague-Dawley rat at 25 mg/kg, po
Assay type: ADME, organism-based
experimental-conditions: in vivo, read-out: beta t1/2 (converted)
recorded-endpoint: half-life (h)
Field format: number, assumed h, no unit text.

Identify the reported half-life for the following entry. "Nc1ccccc1NC(=O)c1ccc(CNC(=O)/C=C/c2cnc3cccnn23)cc1"
8.22

* * *

Test system: HCT-116
assay-name: Cytotoxicity against human HCT116 cells assessed as inhibition of cell proliferation after 72 hrs by MTT assay
Format: functional, cell-based
experimental-conditions: HCT-116, 72 h
recorded-endpoint: pIC50
Bear in mind: pIC50 is minus log10 of a mol/L concentration; give just that figure.

Cc1nc2ccccn2c1/C=C/C(=O)NCCc1ccc(C(=O)Nc2ccccc2N)cc1    5.71
Cc1nc2ccccn2c1/C=C/C(=O)NCc1ccc(C(=O)Nc2ccccc2N)cc1    5.85
Nc1cc(F)ccc1NC(=O)c1ccc(CNC(=O)/C=C/c2cnc3cccnn23)cc1    5.65

For "Nc1ccccc1NC(=O)c1ccc(CCNC(=O)/C=C/c2cnc3cccnn23)cc1" , write its pIC50.
5.64

Please give measured pIC50 of the following entry: "Nc1ccccc1NC(=O)c1ccc(CCNC(=O)/C=C/c2c[nH]c3ccccc23)cc1"
5.80
